# experiment-notes: Bioavailability estimated from total urinary excretion and flavonoid content in fruits
# Assay type: in vivo
# test-conditions: human, urine, oral, 200 g, from pomelo, 200 g edible part; fruit content from ref 10; read-out: Estimated bioavailability (total urinary amount as % of content in fruit)
Give bioavailability for every item shown.
Form entry: value (%) — number only.

Ask | Please report the recorded bioavailability for O=c1c(O)c(-c2ccc(O)cc2)oc2cc(O)cc(O)c12 [Kaempferol, kaempferol] .
Reply | 1

Ask | Ok, now O=c1cc(-c2ccc(O)c(O)c2)oc2cc(O)cc(O)c12 [Luteolin, luteolin]
Reply | 5

---

# experiment-notes: Bioavailability estimated from total urinary excretion and flavonoid content in fruits
# Format: in vivo
# test-conditions: human, in vivo, 200 g, from pineapple, 200 g edible part; fruit content from ref 10; read-out: Estimated bioavailability (total urinary amount as % of content in fruit)
# Protocol: Hollman et al. reported the bioavailability of quercetin from apples and pure quercetin-3-rutinose was only 30% compared to onions. Here, we assumed the flavonoids recovering in urine had passed the blood compartment. […] In the two-hundred grams of edible part, guava and pineapple contained about 6900 μg and 850 μg of quercetin, respectively. The total amount of urinary quercetin accounted for 13% and 80% of the quercetin content in the respective fruits. […]
endpoint: bioavailability (%)
A number alone suffices; assume %.

Ask | Find the recorded bioavailability belonging to O=c1c(O)c(-c2cc(O)c(O)c(O)c2)oc2cc(O)cc(O)c12 and report it.
Reply | 10

---

# experiment-notes: Bioavailability estimated from total urinary excretion and flavonoid content in fruits
# Assay type: in vivo
# test-conditions: human, in vivo, 200 g, from guava, 200 g edible part; fruit content from ref 10; read-out: Estimated bioavailability (total urinary amount as % of content in fruit)
endpoint: bioavailability (%)
Output spec: scalar in %, unitless text.

Ask | Recorded bioavailability of O=c1c(O)c(-c2cc(O)c(O)c(O)c2)oc2cc(O)cc(O)c12 , please.
Reply | 5

---

Would you kindly list bioavailability for each of these compounds?
# experiment-notes: Bioavailability estimated from total urinary excretion and flavonoid content in fruits
# Format: in vivo
# test-conditions: human, urine, oral, 200 g, from guava, 200 g edible part; fruit content from ref 10; read-out: Estimated bioavailability (total urinary amount as % of content in fruit)
Reply numerically in %, unit not repeated.

Ask | // query bioavailability value for entry O=c1c(O)c(-c2ccc(O)c(O)c2)oc2cc(O)cc(O)c12
Reply | 13

Ask | Moving on to O=c1cc(-c2ccc(O)c(O)c2)oc2cc(O)cc(O)c12
Reply | 5
